These measurements were taken from patent US8114968.

Target: T1, human MMP-12 (human, UniProt P39900 106-470, limits assumed)
T1 construct: also called hMMP-12; huMMP12
T1 sequence (P39900 106-470 limits assumed): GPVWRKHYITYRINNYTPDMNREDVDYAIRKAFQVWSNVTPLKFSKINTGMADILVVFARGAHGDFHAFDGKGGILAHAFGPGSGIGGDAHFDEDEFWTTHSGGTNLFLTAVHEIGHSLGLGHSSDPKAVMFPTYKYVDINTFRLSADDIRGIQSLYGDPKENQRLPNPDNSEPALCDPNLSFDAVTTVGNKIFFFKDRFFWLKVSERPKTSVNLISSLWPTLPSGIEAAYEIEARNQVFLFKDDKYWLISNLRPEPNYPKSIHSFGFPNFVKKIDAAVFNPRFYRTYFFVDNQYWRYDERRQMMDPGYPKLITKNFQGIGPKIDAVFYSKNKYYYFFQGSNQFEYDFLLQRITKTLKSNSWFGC
Assay: Ki from inhibition of MMP-12 enzyme activity
Attribute measured: pKi
Value format note: pKi is -log10 of concentration (mol/L); just state the number.

Some solved entries appear below for comparison.
| Binder | Reported result |
| --- | --- |
| 539A-M0016-A11 IgG (antibody, V domains shown, also called M0016-A11 IgG a-huMMP12) VH: EVQLLESGGGLVQPGGSLRLSCAASGFTFSEYQMAWVRQAPGKGLEWVSSIYPSGGHTHYADSVKGRFTISRDNSKNTLYLQMNSLRAEDTAVYYCAKESYYDFWSGYYFDYWGQGTLVTVSS VL: DIQMTQSPSSLSASVRDRVTITCRTSQNINTYLNWYYQAPGRAPKLLIFGVSSLHRGVSSRFSGSGDGTEFTLTISSLQPEDIGTYFCQQSYSSPWTFGQGTKVEIK | 9.15 |
| 539A-M0013-G12 IgG (antibody, V domains shown, also called M0013-G12 IgG a-huMMP12) VH: EVQLLESGGGLVQPGGSLRLSCAASGFTFSWYHMFWVRQAPGKGLEWVSGISSSGGYTHYADSVKGRFTISRDNSKNTLYLQMNSLRAEDTAVYYCATREGMLYDYVWGENYMDVWGKGTTVTVSS VL: DIQMTQSPSSLSASVGDRVTITCQASQDTYNRLHWYQQKPGKAPKLLIYDAVNLNRGVPSRFRGSGSGTNYILIITNLQPEDTATYYCQHSDDLSLAFGGGTKVEIK | 8.69 |
| 539A-M0013-D11 IgG (antibody, V domains shown) VH: EVQLLESGGGLVQPGGSLRLSCAASGFTFSSYPMWWVRQAPGKGLEWVSGIVPSGGVTIYADSVKGRFTISRDNSKNTLYLQMNSLRAEDTAVYYCARVGWLASSDYYYYMDVWGKGTTVTVSS VL: DIQMTQSPSSLSASVGDRITISCQASQDIDNYLNWYQQRSGKAPKLLIYDAYNLKAGVPSRFRGSRSGTDFFLTISSLQPEDFATYYCQQSYRAPLTFGGGTKVEIK | 8.30 |

IN: Given the entry 539A-M0013-H06 IgG (antibody, V domains shown) VH: EVQLLESGGGLVQPGGSLRLSCAASGFTFSAYEMDWVRQAPGKGLEWVSGISSSGGPTYYADSVKGRFTISRDNSKNTLYLQMNSLRAEDTAVYYCARVGGWELLQDYYYYMDVWGKGTTVTVSS VL: DIQMTQSPATLSLSPGERATLSCRASHSVDNLAWYQQQPGQAPRLLIYDVSYRATGIPARFSGSGSGTDFTLTISSLEPEDFAVYYCQQRNNWPLSLTFGGGTKVEIK , report its measured pKi.
OUT: 8.57
